All values here come from the RNAGym collection of RNA variant scans (doi:10.1073/pnas.2313332121).

B1: TPR 5TU (parent)
chain: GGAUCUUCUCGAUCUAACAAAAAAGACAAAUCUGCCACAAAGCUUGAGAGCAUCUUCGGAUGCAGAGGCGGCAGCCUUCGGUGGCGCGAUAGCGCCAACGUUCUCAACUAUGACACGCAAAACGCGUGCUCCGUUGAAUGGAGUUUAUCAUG

Variants of: B1
Assay: polymerase ribozyme fitness, log enrichment relative to wild type (log ratio); higher = more active; in vitro selection for triplet polymerase activity
Fewer inactive variants are shown than the library holds.
Measured Parameter: polymerase ribozyme fitness (log ratio)

Mutation	Measured Parameter	Relation Symbol	Value Observed
U4G C38U G58A C95U C96U U127C	polymerase ribozyme fitness (log ratio)	=	-3.54
A23G C27U C125A G143U	polymerase ribozyme fitness (log ratio)	≤	-4.2
C14A G83A	polymerase ribozyme fitness (log ratio)	=	-0.809
A30U G50C C96U U104C G136U	polymerase ribozyme fitness (log ratio)	≤	-4.2
A20U A47C	polymerase ribozyme fitness (log ratio)	=	-0.824
A21G U55A C96U G117A	polymerase ribozyme fitness (log ratio)	=	0.86
G48C	polymerase ribozyme fitness (log ratio)	=	0.0216
A20C C54U G86C U101C U104A	polymerase ribozyme fitness (log ratio)	≤	-4.2
A24G G25U U31C U55A C87G U102G	polymerase ribozyme fitness (log ratio)	≤	-4.2
A39C A89U C116U	polymerase ribozyme fitness (log ratio)	=	-2.02
U9G C14A C85U G141U	polymerase ribozyme fitness (log ratio)	=	-4.19
C76U G84A U104G U151C	polymerase ribozyme fitness (log ratio)	≤	-4.2
U53G U135C	polymerase ribozyme fitness (log ratio)	=	-3.23
U7G A20C A40C G48U A64U A89U G92U U101C C132A	polymerase ribozyme fitness (log ratio)	≤	-4.2
A16G A20C A22C G25A A37U A40C C75U C96U U130G A138U U145G	polymerase ribozyme fitness (log ratio)	≤	-4.2
U61A G83C	polymerase ribozyme fitness (log ratio)	=	-3.05
C93A C95G	polymerase ribozyme fitness (log ratio)	≤	-4.2
U33G C72U C95A G126U A137G	polymerase ribozyme fitness (log ratio)	≤	-4.2
A47U G86U U134A	polymerase ribozyme fitness (log ratio)	=	-3.84
U53A C95U	polymerase ribozyme fitness (log ratio)	=	-0.368
U13C U44A U56A C79U C93G C95U A115C G141U	polymerase ribozyme fitness (log ratio)	≤	-4.2
C10U A37C C75U C95G	polymerase ribozyme fitness (log ratio)	≤	-4.2
